- assay.comment: yeast display, Sf9 membrane polyspecificity reagent, FACS + sequencing; frameworks hold sequencing errors
measured.property: polyreactivity (PSR sort gate)

QVQLVESGGGIVQAGGSLRLSCASSGRTFFWYAMVWYRQAPGKERELVAAITYRGGGTYYADSVKGRFTISRDNAKNTVYLQMNSLKPEDTAVYYCAAEYWVGVYLYDYWGQGTQVTVSS	high polyreactivity
QVQLVESGGGLVQAGGSLRLSCAASGYIFGGNAMGSYRPAPGNPRELVAAISSSSGGTYYADSVKGRFTISRDNAKNTVYLQMNSLKPEDTAVYYCAAAPVDYEYDYWGQGTQVTVSS	low polyreactivity
QVQLVESGGGLVQAGGSLRLSCAASGFTFAYYAMGWYRQAPGKERELVAAISSRGGSTYYADSVKGRFTISRDNAKNTVYLQMNSLKPEDTAVYYCAAEFGLWPYEYGYWGQGTQVTVSS	high polyreactivity
QVQLVESGGGLVQAGGSLRLSCAASGSIFRTYAMGWYRQAPGKESELVAAISRSGSSTYYADSVKGRFTISRDNAKNTVYLQRTSLQPEDTAVYYCAAYWPLSYGARGSNYWGQGTQVTVSS	high polyreactivity

Turning now to a further sequence:
# polyreactivity (PSR sort gate) lookup, item `RVHLVESGGGLVQAGGSLRLSCAASGRIFDNYVMGWYRQAPGKESELVAAISSGGGTYYADSVKGRFTISRDNAKNTVYLQMKSLKPEDTAVYFCAKRRVFDRSFGRYDYWGQGTQVTVSS` low polyreactivity

---

- assay.comment: yeast display, Sf9 membrane polyspecificity reagent, FACS + sequencing; frameworks hold sequencing errors
measured.property: polyreactivity (PSR sort gate)

These recorded examples may help you get a feel for the data.
QVQLVESGGGIVQAGGSLRLISAASGIIIDYYAMGWYRQAPGKERELVAAITSGGSTSYADSVKGRFTISRDNAKNTVYLQMNSLKAEDTAVYYCNTEPSGYESGYWGQGTLVTVSS	low polyreactivity
QVQLVESGGGLVQAGGSLRLSCAASGSTFQWNTMGWYRQAPGKERELVARITGGGGSTYYADSVKGRFTISRDNAKNTVYLQMNSLKPEDTAVYYCNAAIFGRYEYWGQGTQVTVSS	low polyreactivity
QVHLVESGGGLVQAGGSLRLSCAASGSIFEENAMGWYRQAPGKERELVAVISTRDGRTYYADSVKGRFTISRDNAKNTVYLQMNSLKPEDTAVYYCAASPDPYWRRMDYWGQGTQVTVSS	high polyreactivity
EEELVESGGGLVQAGGSLRLSCAASGSIFYYNAMGWYRQAPGKERELVAAISRGGTTNYADSVKGRFTISRDNAKNTVYLQMNSLKPEDTAVYYCAAKAYDYYGPVYYWGQGTQVTVSS	high polyreactivity
QVQLVESGGGLVQAGGSLRLSCAASGLIFSSYAMGWYRQAPGKERELVAAITGSGGRTYYADSVKGRFTISRDNAKNTVYLQMNSLKPEDTAVYYCAAKYPAPRYYTGYDYWGQGTQVTVSS	high polyreactivity
QVQLVESGGGLVQAGGSLRLSCAASGRIFYYNVMGWYRQAPGKERELVASISYSSTRTYYADSVKGRFTISRDNAKNTVYLQMNSLKPEDTAVYYCAVDTYAYRGVSYWSERTYYYWGQGTQVTVSS	low polyreactivity
QVQLVESGGGLVQAGGSLRLSCAASGITFYDYAMGWYRQEPGKERELVAAINSSGVRTYYADSVKGRFTISRDNAKNTVYLQMNSLKPEDTAVYYCAAVRRGPYISRSDMDYYWGQGTQVTVSS	high polyreactivity
QVQLVESWGGLVQAGGSLRLSCAASGSTFGKYFMGWYRQAHGKERELVAAISLSGGSTYYADSVKGRFTISRDKAKNTVYLQMNSLKPEDTAVYYCATVGYGYDYWGQGNQVTVSS	high polyreactivity

Return reported polyreactivity (PSR sort gate); argument: `QVQLVDSGGGIVQAGGSLRLSCAASGRIFKLYAMGRYRQAPGKERELVAAISKSGGNTYADSVKGRFTISRDNAKNSVYLQMNSLKPEDTAVYYCAATVQSTSDPFDYWGQGTQVTVSS` low polyreactivity

I have this sequence here, `QVQLVESGGGLVQAGGSLRLSCAASGSIFKQNAMGWYRQAPGKDRELVASIRASGDRTYYADSVKGRFTISRDNAKNTVYLQMNSLKPEDTAVYYCAARRVRTRGYNYWGQGTQVTVSS` , and I need its recorded polyreactivity (PSR sort gate). high polyreactivity

Fill blank: measured polyreactivity (PSR sort gate) of the sequence `QVQLVESGGGLVQAGGSLRLSCAASGSTFYGYAMGWSRQAPGKERELVAAISSSGSRTYYADSVKGRFTISRDNANNPVYLQMNSLKPEDTAVYYCAAVSTLLYYHYYTRDYWGQGTEVTVSS` is ____. high polyreactivity
